Sourced from patent US20130172345A1

- System: K562 cells, human proerythroblast cells
- assayProtocol: Hemoglobin production in K562 cells (fluorescence of the porphyrin ring)
- Assay type: cell-based
- assaySetup: 144 h, test compound 6 μM, 3+3 days, non-stimulated state = 100%, read-out: production amount of hemoglobin, % of control (6 μM)
Criterion: activity at 6 µM strictly under 300%. Met: t. Not met: f.

Exam item: Please check: activity at 6 µM for CC(=O)N1c2ccc(C(N)=O)cc2[C@H](Oc2ccc(F)cc2)C[C@@H]1C (relative stereo) , strictly under 300% or not?
Marked response: t

Exam item: Please check: activity at 6 µM for CC(=O)N1c2ccc(F)cc2[C@H](Oc2ccccc2)C[C@@H]1C (relative stereo) , strictly under 300% or not?
Marked response: t

Exam item: Please check: activity at 6 µM for CC(=O)N1c2cc(F)ccc2[C@H](Oc2ccccc2)C[C@@H]1C (relative stereo) , strictly under 300% or not?
Marked response: t

Exam item: Please check: activity at 6 µM for CCOC(=O)c1ccc2c(c1)[C@H](Nc1ccc(Cl)cc1)C[C@H](C)N2C(C)=O (relative stereo) , strictly under 300% or not?
Marked response: f

Exam item: Please check: activity at 6 µM for CC(=O)N1c2ccc(F)cc2C(Nc2ccc(F)cc2)CC1C (stereo not drawn) , strictly under 300% or not?
Marked response: t

Exam item: Please check: activity at 6 µM for CC(=O)N1c2cc(C#N)ccc2[C@H](Nc2ccccc2)C[C@@H]1C (relative stereo) , strictly under 300% or not?
Marked response: t

Exam item: Please check: activity at 6 µM for COCc1ccc(NC2CC(C)N(C(C)=O)c3ccccc32)cc1 (stereo not drawn) , strictly under 300% or not?
Marked response: f

Exam item: Please check: activity at 6 µM for CC(=O)N1c2ccc(-c3nc(=O)o[nH]3)cc2C(Nc2ccc(Cl)cc2)CC1C (stereo not drawn) , strictly under 300% or not?
Marked response: t

Exam item: Please check: activity at 6 µM for CC(=O)N1c2ccccc2C(Nc2ccccc2N2CCOCC2)CC1C (stereo not drawn) , strictly under 300% or not?
Marked response: f

Exam item: Please check: activity at 6 µM for CC(=O)N1c2ccccc2C(Oc2ccc([N+](=O)[O-])cc2)CC1C (stereo not drawn) , strictly under 300% or not?
Marked response: t

Exam item: Please check: activity at 6 µM for CC(=O)N1c2ccc(C(N)=O)cc2[C@H](Nc2ccc(CC(N)=O)cc2)C[C@@H]1C (relative stereo) , strictly under 300% or not?
Marked response: t

Exam item: Please check: activity at 6 µM for CC(=O)N1c2ccccc2C(Nc2cccc(F)c2)CC1C (stereo not drawn) , strictly under 300% or not?
Marked response: f

Exam item: Please check: activity at 6 µM for CC(=O)N1c2ccc(CO)cc2[C@H](Nc2ccc(Cl)cc2)C[C@@H]1C (relative stereo) , strictly under 300% or not?
Marked response: t

Exam item: Please check: activity at 6 µM for CC(=O)N1c2ccccc2C(Nc2ccc(CC(N)=O)cc2)CC1C (stereo not drawn) , strictly under 300% or not?
Marked response: t

Exam item: Please check: activity at 6 µM for CC(=O)N1c2ccc(C#N)cc2C(Nc2ccccc2)CC1C (stereo not drawn) , strictly under 300% or not?
Marked response: f

====

- Tested on: K562 cells, human proerythroblast cells
- assayProtocol: Hemoglobin production in K562 cells (fluorescence of the porphyrin ring)
- Format: cell-based
- assaySetup: 144 h, test compound 6 μM, 3+3 days, non-stimulated state = 100%, read-out: production amount of hemoglobin, % of control (6 μM)
Criterion: activity at 6 µM strictly under 300%. Met: TRUE. Not met: FALSE.

Exam item: Please check: activity at 6 µM for CC(=O)N1c2ccc(C(N)=O)cc2[C@H](Nc2ccc(CC(=O)O)cc2)C[C@@H]1C (relative stereo) , strictly under 300% or not?
Marked response: FALSE

Exam item: Please check: activity at 6 µM for CC(=O)N1c2ccc(N3CCN(C(=O)C(C)C)CC3)cc2C(Nc2ccc(Cl)cc2)CC1C (centres unmarked) , strictly under 300% or not?
Marked response: TRUE

Exam item: Please check: activity at 6 µM for CC(=O)N1c2ccccc2C(Nc2ccc(C#N)cc2)CC1C (centres unmarked) , strictly under 300% or not?
Marked response: FALSE

Exam item: Please check: activity at 6 µM for CC(=O)N1c2ccccc2C(Oc2ccc(N)cc2)CC1C (centres unmarked) , strictly under 300% or not?
Marked response: TRUE

Exam item: Please check: activity at 6 µM for CC(=O)N1c2ccccc2[C@H](Nc2ccccc2C(=O)O)C[C@@H]1C (relative stereo) , strictly under 300% or not?
Marked response: TRUE

Exam item: Please check: activity at 6 µM for CC(=O)N1c2cc(N3CCOCC3)ccc2C(Nc2ccc(Cl)cc2)CC1C (centres unmarked) , strictly under 300% or not?
Marked response: TRUE

Exam item: Please check: activity at 6 µM for CC(=O)N1c2ccccc2[C@H](OCc2ccccc2)C[C@@H]1C (relative stereo) , strictly under 300% or not?
Marked response: TRUE

Exam item: Please check: activity at 6 µM for CC(=O)N1c2ccccc2C(Nc2ccc(CO)cc2)CC1C (centres unmarked) , strictly under 300% or not?
Marked response: TRUE
